test system: DJM-1; test: cells; format: functional, cell-based, Homo sapiens; conditions: Homo sapiens, DJM-1;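 further: growth inhibition of human DJM-1 cells, read out by a cell viability assay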
Description: SANGER: Inhibition of human DJM-1 cell growth in a cell viability assay.
pIC50: −log10 of the molar value.
Measured endpoint: pIC50

Molecule	Result
CCC(=O)N1CCN(c2ccc(-n3c(=O)ccc4cnc5ccc(-c6cnc7ccccc7c6)cc5c43)cc2C(F)(F)F)CC1	< 5.92
O=C1N=C(NCc2cccs2)S/C1=C\c1ccc2ncccc2c1	< 5.30
O=C(/C=C/c1ccccc1)NC(NC(=S)Nc1cccc2cccnc12)C(Cl)(Cl)Cl (configuration not stated)	< 4.80
CC1=C2C[C@H]3[C@@H](CC=C4C[C@@H](O)CC[C@@]43C)[C@@H]2CC[C@]12O[C@@H]1C[C@H](C)CN[C@H]1[C@H]2C	< 4.80
COC(=O)CNC(=O)C(=O)OC	3.67
COc1cc([C@@H]2c3cc4c(cc3[C@@H](O[C@@H]3O[C@@H]5CO[C@@H](C)O[C@H]5[C@H](O)[C@H]3O)[C@H]3COC(=O)[C@H]23)OCO4)cc(OC)c1O [ETOPOSIDE]	6.69
C=C1C(=O)O[C@@H]2C3O[C@]3(C)CC/C=C(\C)CC[C@@H]12 (some centres not stated)	< 5.30

====

# IC50 per entry
system: PFSK-1; assay: cells; type: functional, cell-based, Homo sapiens; details: Homo sapiens, PFSK-1;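 further: cell viability assay measuring how strongly compounds suppress growth of human PFSK-1 cells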
Description: SANGER: Inhibition of human PFSK-1 cell growth in a cell viability assay.
Measured endpoint: IC50

Smiles structure	Result
O=c1cc(-c2cccc3c2Sc2ccccc2S3)oc(N2CCOCC2)c1	> 10 µM
Nc1ccn([C@@H]2O[C@H](CO)[C@@H](O)[C@@H]2O)c(=O)n1	> 2 µM
CCOc1nc(NC(=O)Cc2cc(OC)ccc2OC)cc(N)c1C#N	> 10 µM
CCC1=C[C@@H]2CN(C1)Cc1c([nH]c3ccccc13)[C@@](C(=O)OC)(c1cc3c(cc1OC)N(C)[C@H]1[C@@](O)(C(=O)OC)[C@H](OC(C)=O)[C@]4(CC)C=CCN5CC[C@]31[C@@H]54)C2	0.0205 µM
O=C(c1cc(Cc2n[nH]c(=O)c3ccccc23)ccc1F)N1CCN(C(=O)C2CC2)CC1	> 5 µM
C=CCNC1=C2C[C@@H](C)C[C@H](OC)[C@H](O)[C@@H](C)/C=C(\C)[C@H](OC(N)=O)[C@@H](OC)/C=C\C=C(/C)C(=O)NC(=CC1=O)C2=O	> 1 µM
CN(C)C/C=C/C(=O)Nc1cc2c(Nc3ccc(F)c(Cl)c3)ncnc2cc1O[C@H]1CCOC1	> 0.5 µM
Cc1cnc(-c2cnc(NCCNc3ccc(C#N)cn3)nc2-c2ccc(Cl)cc2Cl)[nH]1	> 2.56 µM
COC(=O)CNC(=O)C(=O)OC	274 µM
Cn1cncc1[C@@](N)(c1ccc(Cl)cc1)c1ccc2c(c1)c(-c1cccc(Cl)c1)cc(=O)n2C	> 16 µM

====

test system: SK-HEP1; experiment: cells; assay type: functional, cell-based, Homo sapiens, SK-HEP-1; settings: Homo sapiens, SK-HEP1;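 further: cell viability readout used to quantify reduction in proliferation of human SK-HEP-1 cells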
Description: SANGER: Inhibition of human SK-HEP-1 cell growth in a cell viability assay.
# IC50 per entry
Measured endpoint: IC50 (µM)

> print(dat)
                           smiles.structure  value.relation.sign  numeric.readout
1  COc1ccc(-c2ccc3c(N4CCOC[C@@H]4C)nc(N4CCOC[C@@H]4C)nc3n2)cc1CO                    >                2
2                     COC(=O)CNC(=O)C(=O)OC                    =             84.2
3  O=C(NOCC1CC1)c1ccc(F)c(F)c1Nc1ccc(I)cc1Cl                    =             5.93
4  C=CCc1cccc(/C=N/NC(=O)CN2CCN(Cc3ccccc3)CC2)c1O                    >             2.56
